// values below are reported activity coefficient
# PROCEDURE_TEXT: activity coefficient (dimensionless); of the first substance listed, at infinite dilution; xn = mol fraction of the nth substance listed
# PROTOCOL_CONDITIONS: 312.8 K; 101 kPa; Liquid; Chromatography; x1 = 0
I'd appreciate a reply containing only the number, no unit.

Answered cases to consult:
- MOLECULE: "CCC(C)CC [3-methylpentane] + CCCCCC[n+]1ccn(C)c1.FC(F)(F)C(F)(F)[P-](F)(F)(F)(C(F)(F)C(F)(F)F)C(F)(F)C(F)(F)F"
  activity coefficient: 5.63
- MOLECULE: "C=CCCCC [hex-1-ene] + CCCCCC[n+]1ccn(C)c1.FC(F)(F)C(F)(F)[P-](F)(F)(F)(C(F)(F)C(F)(F)F)C(F)(F)C(F)(F)F"
  activity coefficient: 3.67
- MOLECULE: "CCC=O [propanal] + CCCCCC[n+]1ccn(C)c1.FC(F)(F)C(F)(F)[P-](F)(F)(F)(C(F)(F)C(F)(F)F)C(F)(F)C(F)(F)F"
  activity coefficient: 0.274

Next item in the queue.
Request: Which measured activity coefficient value corresponds to CCOCC [diethyl ether] + CCCCCC[n+]1ccn(C)c1.FC(F)(F)C(F)(F)[P-](F)(F)(F)(C(F)(F)C(F)(F)F)C(F)(F)C(F)(F)F ?
Result: 0.837

* * *

# PROCEDURE_TEXT: activity coefficient (dimensionless); of the first substance listed, at infinite dilution; xn = mol fraction of the nth substance listed
# PROTOCOL_CONDITIONS: 312.55 K; 101 kPa; Liquid; Chromatography; x1 = 0
ENDPOINT_NAME: activity coefficient

The following compounds have reported results that may help.
- COMPOUND: "CC(C)O [propan-2-ol] + CCn1cc[n+](C)c1.CS(=O)(=O)[O-]"
  activity coefficient: 0.924
- COMPOUND: "CO [methanol] + CCn1cc[n+](C)c1.CS(=O)(=O)[O-]"
  activity coefficient: 0.249

Let us examine a further case.
Request: Given c1ccsc1 [thiophene] + CCn1cc[n+](C)c1.CS(=O)(=O)[O-] , state its recorded activity coefficient.
Result: 1.87

* * *

# PROCEDURE_TEXT: activity coefficient (dimensionless); of the first substance listed, at infinite dilution; xn = mol fraction of the nth substance listed
# PROTOCOL_CONDITIONS: 322.55 K; 101 kPa; Liquid; Chromatography; x1 = 0
I'd appreciate it if you could label each record using activity coefficient and these ranges: bottom: < 2; middle: ≥ 2 and < 10; top: ≥ 10

Request: Kindly state the category for this compound: CCCCCCCCCCCCC [tridecane] + CCCCn1cc[n+](C)c1.O=S(=O)([N-]S(=O)(=O)C(F)(F)C(F)(F)F)C(F)(F)C(F)(F)F
Result: top

Request: Which class does CCC(C)=O [butanone] + CCCCn1cc[n+](C)c1.O=S(=O)([N-]S(=O)(=O)C(F)(F)C(F)(F)F)C(F)(F)C(F)(F)F fall in?
Result: bottom

Request: Class label required: CCCCCCCCC [nonane] + CCCCn1cc[n+](C)c1.O=S(=O)([N-]S(=O)(=O)C(F)(F)C(F)(F)F)C(F)(F)C(F)(F)F
Result: top

Request: For this compound, which bin applies? CCC(C)CC [3-methylpentane] + CCCCn1cc[n+](C)c1.O=S(=O)([N-]S(=O)(=O)C(F)(F)C(F)(F)F)C(F)(F)C(F)(F)F
Result: middle
